Where do these numbers come from? They come from PubChem BioAssay AID2314.

Assay: Cycloheximide Counterscreen for Small Molecule Inhibitors of Shiga Toxin
Conditions: cell reporter, cycloheximide protein synthesis inhibition counterscreen; hits give high values
Screen size: about 300,000 compounds; about 37,000 (12%) were called active. Shown is part of a subset that was picked to be rich in actives.
MEASUREMENT_LABEL: max response (%)

COMPOUND | MEASUREMENT_LABEL | DISPLAY_UNIT | MEASURED
CC(C)c1cc(C(=O)N/N=C/C(Br)=C/c2ccccc2)n[nH]1 | max response | % | 14.6
COc1ccc2ccccc2c1/C=N/NC(=O)c1cc(C)[nH]n1 | max response | % | -1.72
CN(CC(=O)NC1CCCCC1)S(=O)(=O)c1ccc(Br)s1 | max response | % | 6.95
CC1CC(C)CN(CCC(=O)Nc2ccc3c(c2)CCC3)C1 (centres undefined) | max response | % | -6.42

* * *

The reader will find reported max response values listed item by item below.
Experiment: Cycloheximide Counterscreen for Small Molecule Inhibitors of Shiga Toxin; also: read at 38.3 µM for the half of the compounds with a filed dose; 0% is about no effect
Details: cell reporter, cycloheximide protein synthesis inhibition counterscreen; hits give high values
Out of some 300,000 compounds screened, about 37,000 (12%) were called active. Only a selection was taken, and actives are over-represented in it overall.

COMPOUND | max response [%]
O=C(NNC(=O)C1CCCC1)c1ccc(F)cc1 | -5.73
O=C(c1ccccc1)C(Cn1cncn1)C(Sc1ccccc1)c1ccccc1 (stereo not drawn) | -6.69
CCCCC(C(=O)NC(C)(C)C)N(Cc1ccccc1)C(=O)c1snc(C(N)=O)c1N (stereo not drawn) | -0.829
O=C1c2cccc3c([N+](=O)[O-])ccc(c23)C(=O)N1CC1CCCO1 (stereo not drawn) | 20
CCCOC(=O)c1c(NC(=O)c2cnn3c2NC(c2ccccc2)CC3C(F)(F)F)sc2c1CCCC2 (stereo not drawn) | -8.8
Cc1sc2ncn(CC(=O)NCCN(C)C)c(=O)c2c1S(=O)(=O)N1CCC(C)CC1 | 7.86
Cc1nc(-c2ccccc2)sc1C(=O)/C=C/N(C)C | 45.3
S=C(NNC(=S)NC1CC2CCC1C2)NC1CC2C=CC1C2 (stereo not drawn) | 4.61

* * *

Assay: Cycloheximide Counterscreen for Small Molecule Inhibitors of Shiga Toxin; also: read at 38.3 µM for the half of the compounds with a filed dose; 0% is about no effect
Conditions: cell reporter, cycloheximide protein synthesis inhibition counterscreen; hits give high values
Screen size: about 300,000 compounds; about 37,000 (12%) were called active. The full list was thinned out, with actives kept by preference.
Here, each record is paired with measured max response data.

COMPOUND | max response, %
CC(C)(C)NC(=O)COc1ccc(CNc2ccc3[nH]c(=O)[nH]c3c2)cc1 | -1.49
C=CCOc1ccccc1NC(=O)CN1C(=O)CNC1=O | 0.268
CCOC(=O)C1CCN(S(=O)(=O)c2ccc3c(c2)N(C)C(=O)CC(=O)N3C)CC1 | -2.95
COc1ccc(OCC(=O)Nc2cc(C)c(Cl)cc2OC)c([N+](=O)[O-])c1 | 13.9
COc1ccc(OCC(=O)NNC(=O)c2ccc(-c3ccccc3)cc2)cc1 | -2.64
COCCC(=O)N1CCC(Oc2ccc(C(=O)NCc3ccon3)cc2)CC1 | 2.55
COc1ccc(Cl)cc1NC(=O)CN(C)Cc1ccc(OC)c(OC)c1 | 10.8
CC(C)Cc1cc(C(=O)Nc2cc(Br)ccc2O)no1 | 31.8
Cc1ccc(-n2ncc3c2CCCC3NC(=O)c2cnccn2)cc1C (centres undefined) | 9.44
COc1ccc(C/C(N)=N/OC(=O)c2ccco2)cc1OC | 22.4
CCCCOP(=O)(c1ccc(N(C)C)cc1)C(O)c1cc(OC)ccc1OC (centres undefined) | -3.9
CCOC(=O)C1(Cc2cccc(OC)c2)CCN(C(C)CC(C)(C)O)CC1 (centres undefined) | -3.86
C=CCN(CC=C)S(=O)(=O)c1ccc(C(=O)Nc2nc3c(s2)CCc2ccccc2-3)cc1 | -6.15
COc1ccc(OC)c(S(=O)(=O)Nc2cccc(-c3ccc4nncn4n3)c2)c1 | -3.34
COc1ccc(C(=O)CCC(=O)Nc2cccnc2)c(OC)c1 | -5.23
CS(=O)(=O)Nc1cccc(-c2cn3ccccc3n2)c1 | 19.3
Cc1ccc(S(=O)(=O)N(C)c2nc3ccccc3n3c(C(C)C)nnc23)cc1 | 1.55
CCC(Cc1ccccc1)NS(=O)(=O)c1ccc2c(c1)NC(=O)CS2 (centres undefined) | 0.995
COc1ccc(/C=C(\NC(=O)c2ccc(OCC(C)C)cc2)C(=O)OCc2ccco2)cc1 | -1.98
CCC(=O)Nc1cccc(NC(=O)CSc2nnc(-c3ccc(NS(C)(=O)=O)cc3)n2C)c1 | -1.2
COc1ccc(C(=O)CCc2ccccc2O)c(OC)c1 | 32.7
Cc1cc(NC(=O)COC(=O)COc2ccc(Cl)cc2C)c([N+](=O)[O-])cc1C | -1.12
Cc1cc(C2=NNC(=Nc3ccc(S(=O)(=O)N4CCOCC4)cc3)SC2)c(C)n1CC1CCCO1 (centres undefined) | 19.4
CCC(C)Sc1nc2c(cnn2-c2ccc(F)cc2)c(=O)[nH]1 (centres undefined) | 3.85
CCOC(=O)C1(CCOc2ccccc2)CCN(C(=O)c2cncs2)CC1 | 1.41
O=C(Nc1nnc(-c2ccc(F)cc2)s1)c1c(F)cccc1Cl | -1.16
Cc1cc(=O)oc2cc(OCCC[n+]3ccccc3)ccc12 | 1.33
COc1ccc(C(=O)COC(=O)c2nn(C)c(=O)c3ccccc23)c(OC)c1 | 4.36
COC(=O)CCCC1=CC2=C(c3ccccc3)C(=O)C(C)(OC(=O)C3CCCC3)C(=O)C2=CN1c1ccc(OC)cc1 (centres undefined) | -2.86
O=C(N/N=C/c1c(Cl)[nH]c2ccccc12)c1sc2ccccc2c1Cl | 12.8
COCCn1c(C)cc(C2=NNC(=Nc3ccc(F)cc3)SC2)c1C | 31.2
COc1ccc(OC)c(NC(=O)CN(Cc2ccc(Cl)cc2)S(C)(=O)=O)c1 | -2.07
COc1cc(Cl)c(C)cc1NC(=O)COC(=O)c1cc(SC)ccc1Cl | -1.86
Cc1ccc(NC(=O)COC(=O)C2C3CC4OC(=O)C2C4C3)cc1Cl (centres undefined) | 6.04
COc1ccc(-n2c(C)cc(C(=O)CN3C(=O)NC4(CCc5ccccc54)C3=O)c2C)cc1 (centres undefined) | 3.03
Cc1ccc(-c2nnc(Nc3ccc(C(=O)N(C)C)cc3)c3ccccc23)cc1S(N)(=O)=O | -2.16
COc1ccc(CC(=O)NC(C)CCc2ccccc2)cc1 (centres undefined) | -0.862
CC1CCCCC1NC(=O)c1cn(C)c2ccc(S(=O)(=O)N3CCOCC3)cc2c1=O (centres undefined) | 1.03
CCOC(=O)c1cc2n(c1N)-c1ccccc1C2=O | 16.1

* * *

Experiment: Cycloheximide Counterscreen for Small Molecule Inhibitors of Shiga Toxin; also: read at 38.3 µM for the half of the compounds with a filed dose; 0% is about no effect
Conditions: cell reporter, cycloheximide protein synthesis inhibition counterscreen; hits give high values
Screen size: about 300,000 compounds; about 37,000 (12%) were called active. Only a selection was taken, and actives are over-represented in it overall.

COMPOUND | DISPLAY_UNIT | max response
O=C(NNc1ccccn1)c1ccc(Cl)nc1 | % | 2.34
Cc1ccc(NC(=O)c2ccccn2)cc1S(=O)(=O)N1CCOCC1 | % | 2.74
COc1cc(/C=C/C(=O)OCC(=O)N2CCOCC2)ccc1OCC#N | % | -1.28
O=C(Nc1nnc(Cc2ccc(Cl)cc2)s1)c1cccnc1 | % | 1.24
Cc1cnc(NC(=O)c2ccc(Cl)nc2)s1 | % | 43.4
S=C(c1ccccc1)N1CCCC1 | % | -0.586
CC(C)COC(=O)n1c(=O)oc2ccc(S(=O)(=O)N3CCCCC3)cc21 | % | -3.35
CC1CCN(c2oc(-c3ccccc3F)nc2C#N)CC1 | % | 28.8
Cc1oc(-c2ccccc2F)nc1CS(=O)CC(=O)NCCN1CCCCC1C (stereo unspecified) | % | -6.49
S=C(c1ccc(-c2ccccc2)o1)N1CCCCC1 | % | 38.1
CC(=O)NC(CC(=O)O)c1ccc(F)cc1 (stereo unspecified) | % | -1.3
Cc1ccc(OCc2nnc(SC3CCc4ccccc4C3=O)n2C)cc1 (stereo unspecified) | % | 4.12
CCCCC1S/C(=N/N=C/c2cccs2)NC1=O (stereo unspecified) | % | -2.78
CCN(CC)c1ccc(NC(=O)c2ccc(Cl)nc2)cc1 | % | 16.7
CCN1CCN(C(=O)c2cc3cc4ccc(OC)cc4nc3s2)CC1 | % | 15.1
CC(=O)Nc1ccc(Nc2ncnc3c2nnn3Cc2ccccc2Cl)cc1 | % | -1.15

* * *

// reported max response per item
Assay: Cycloheximide Counterscreen for Small Molecule Inhibitors of Shiga Toxin; also: read at 38.3 µM for the half of the compounds with a filed dose; 0% is about no effect
Details: cell reporter, cycloheximide protein synthesis inhibition counterscreen; hits give high values
The campaign covered roughly 300,000 compounds. About 37,000 (12%) were called active. The sample as a whole holds a higher share of actives than the screen did.
MEASUREMENT_LABEL: max response (%)

COMPOUND | MEASURED
N#Cc1c(-c2ccccc2)nc(SCc2ccc([N+](=O)[O-])cc2)[nH]c1=O | -1.84
Cc1ccc2nc(-c3ccc(NC(=O)CN(C)S(=O)(=O)c4ccccc4)cc3)sc2c1 | 41.9
CC1CN(C(=S)Nc2ccc(S(N)(=O)=O)cc2)CC(C)O1 (stereo unspecified) | -1.03
O=C1OC(/C=C/c2ccccc2)=NC/1=C/c1ccco1 | -1.15
Cc1ccc(NC(=O)CC2S/C(=N/N=C3\CCCc4ccccc43)NC2=O)cc1 (stereo unspecified) | -4.9
O=C(CCn1c(=S)[nH]c2cc3c(cc2c1=O)OCO3)NCc1ccc(Cl)cc1 | 12.5
COc1ccccc1CC(=O)Nc1ccc([N+](=O)[O-])cc1OC | -1.19
CSc1ccccc1NC(=O)CN(C)CC(=O)Nc1cccc(Br)c1 | 1.62
Cc1oc2cc(Br)c(O)c(Br)c2c1C(=O)c1ccccc1 | 13.7
Cc1ccc(N(CC(=O)Nc2cc(C)cc(C)c2)S(=O)(=O)c2cccc3nonc23)cc1 | -2.6
COC(=O)c1ccccc1N=Nc1c(C)[nH][nH]c1=O | -1.54
COc1ccccc1N=C(C)C1=C(O)COC1=O | -3.1
CCN(CC)C(=O)C(=O)Nc1cccc(Br)c1 | 36.1
COc1ccc(-c2nnc(SCC(=O)c3cccs3)o2)c(OC)c1 | 51.4
C=CCn1c(-c2ccccc2OCC)n[nH]c1=S | 5.03
COc1cccc(N(CC(=O)NC2CCCCCC2)S(=O)(=O)c2ccccc2)c1 | 1.89
CN(C)Cc1ccc(F)cc1Sc1cc(Cl)ccc1Cl | -1.42
Cn1ncc(Br)c1C(=O)NC1CCCC1 | -6.23
CCN(CC)C(=O)Oc1ccc(Br)cc1C(=O)Nc1ccc(F)c(Cl)c1 | 11
COc1cccc(NC(=O)NCc2ccc(F)cc2)c1 | 10.4
COc1cccc(CC(=O)Nc2ccc(-c3csc(C)n3)cc2)c1 | 15.4
COc1ccccc1-c1nnc(SCC(=O)N2CC(C)CC(C)C2)o1 (stereo unspecified) | 1.31
COc1cccc(NC(=O)CSc2nnc(Cc3ccc(OC)c(OC)c3)o2)c1 | -3.54
COc1ccccc1N=Nc1c(O)[nH]c(=S)[nH]c1=O | 18.5
O=C(NCc1ccccc1)c1onc(CSc2nc3ccccc3[nH]2)c1C(=O)NCc1ccccc1 | -0.0609
COc1cccc(NC(=O)Cc2ccc(C)cc2)c1 | 27.5
Cn1nc([N+](=O)[O-])nc1Sc1ccc(C(C)(C)C)cc1 | -3.02
COc1ccccc1/C=C/C1=NC(=C\N(C)C)/C(=O)O1 | 10.1
CCOc1ccc(NS(=O)(=O)c2cc(C)c(C)cc2C)cc1 | 0.868
CC(=O)OCC(NC(=O)C(Cc1ccccc1)NC(=O)OC(C)(C)C)C1OC(n2ccc(=O)[nH]c2=O)C(OC(C)=O)C1OC(C)=O (stereo unspecified) | 10.7
Cc1ccc(CC(=O)Nc2cccc(C#N)c2)cc1 | 14.1
O=C(NCCCO)c1cc2c([nH]c3ccccc32)c(-c2ccc(F)cc2)n1 | 1.63
N#Cc1ccc(OCc2nnc(-c3ccc([N+](=O)[O-])cc3)o2)cc1 | -2.49
COc1ccc(CCNC(=O)C2CCCN2C(=O)Nc2ccccc2)cc1OC (stereo unspecified) | -1.21
O=C(O)CCCN1C(=O)C2C3c4ccccc4C(c4ccccc43)[C@@H]2C1=O (stereo partly specified) | -1.2
Cc1nc2ccc(S(=O)(=O)N(C)CC(=O)NC(C)c3ccccc3)cc2s1 (stereo unspecified) | -0.483
